These data points were gathered from patent EP4667464A1.

# SYSTEM NAME: SOS1 (Homo sapiens, UniProt Q07889)
# Construct: HIS-SOS1cat (160 nM; Cytoskeleton, US); His (N); purchased Cytoskeleton
# Sequence (Q07889 564-1049 limits assumed): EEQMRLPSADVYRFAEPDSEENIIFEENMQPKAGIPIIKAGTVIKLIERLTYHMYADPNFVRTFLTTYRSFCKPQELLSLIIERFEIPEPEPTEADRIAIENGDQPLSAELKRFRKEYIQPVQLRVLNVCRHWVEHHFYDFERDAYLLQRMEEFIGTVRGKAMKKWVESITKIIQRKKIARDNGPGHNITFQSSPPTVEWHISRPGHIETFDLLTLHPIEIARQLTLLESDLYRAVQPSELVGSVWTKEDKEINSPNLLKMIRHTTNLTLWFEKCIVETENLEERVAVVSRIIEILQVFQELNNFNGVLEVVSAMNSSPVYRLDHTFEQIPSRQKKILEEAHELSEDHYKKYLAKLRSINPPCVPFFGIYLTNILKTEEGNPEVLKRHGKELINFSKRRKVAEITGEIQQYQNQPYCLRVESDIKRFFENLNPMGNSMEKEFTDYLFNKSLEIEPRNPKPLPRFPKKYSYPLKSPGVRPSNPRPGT
# PROTOCOL NOTES: SOS-catalyzed nucleotide exchange assay (HTRF, SOS1-mediated GTP loading of KRAS G12D)
# Format: biochemical
# CONDITIONS: GST-KRAS G12D, HIS-SOS1cat, compound 128 pM to 10 µM; read-out: SOS-catalyzed nucleotide exchange assay
# key: entry, value: IC50

Example entries and their recorded answers appear below.
C[C@@H](NC(=O)c1ccc(=O)n(-c2cncc(-c3cnnn3C3CCN(S(C)(=O)=O)CC3)c2)n1)c1cccc(C(F)(F)F)c1F [Example 20-8] = < 50 nM
[2H]c1cc(C(=O)N[C@H](C)c2cccc(C(F)(F)F)c2F)nn(-c2cncc(-c3cnnn3C)c2)c1=O [Example 1-38] = 50 to 150 nM

Proceed to the following item.
Sure, the documented IC50 for C[C@@H](NC(=O)c1ccc(=O)n(-c2cncc(-c3cnnn3C3CC3)c2)c1)c1cccc(C(F)(F)F)c1F [Example 1-68] is < 50 nM
